Assay: NCI Yeast Anticancer Drug Screen. Data for the rad50 strain (AID 155);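 also: 0% = growth of vehicle-only cultures of the same strain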
Conditions: S. cerevisiae rad50 strain growth inhibition; at 50.0 µM; active compounds read high
The panel holds about 79,000 compounds, 15% with a hit somewhere; the sample as a whole holds those more often. Activity calls are given as the source filed them. Rule as the data show it: active = growth inhibition above about 70%; inactive = the rest.
Measure name: growth inhibition

Challenge: Please give the measured growth inhibition for this compound: CCC(CC)C(=O)OC1CCCCC1C(C)C (stereo unspecified)
Response given: 6.8% (inactive)

Challenge: Requested read-out: growth inhibition. Entry: COc1ccc(N2C(=O)C3CC(c4ccc(Br)cc4)c4c([nH]c5ccccc45)C3C2=O)cc1 (stereo unspecified)
Response given: 1.7% (inactive)

Challenge: Name the reported growth inhibition value associated with the compound "O=C1C(c2ccccc2)=C(c2ccccc2)/C1=C\c1ccc(Cl)cc1Cl"
Response given: 7.4% (inactive)

Challenge: Entry under review: NC(CCC(=O)OCCn1c2ccccc2c2ccccc21)C(=O)O (stereo unspecified) . Reported growth inhibition?
Response given: -1.9% (inactive)

Challenge: Give its growth inhibition value. Item: c1ccc(SC2CCSc3ccccc3C2Sc2ccccc2)cc1 (stereo unspecified)
Response given: 3.2% (inactive)

Challenge: For "c1ccc(C2=NC3(CCCCC3)N=C2c2ccccc2)cc1" , what is its reported growth inhibition?
Response given: 27.1% (inactive)

Challenge: Which growth inhibition is listed for N#C/C(=C\C1CCCC([N+](=O)[O-])C1)C1CCC([N+](=O)[O-])CC1 (stereo unspecified) ?
Response given: -0.55% (inactive)

Challenge: Record request: growth inhibition value, item "CCCCn1cnc2c(SCc3ccc(Cl)cc3Cl)nc(N)nc21"
Response given: 1.15% (inactive)

Challenge: # get_value(readout='growth inhibition', item= "CCOC(=O)C1(C(=O)OCC)CCCN1C(=O)[C@H](CNC(=O)OC(C)(C)C)NC(=O)OCc1ccccc1" )
Response given: 32.1% (inactive)

Challenge: Give its growth inhibition value. Item: "C/C(=N\O)c1ccc(OCc2cc(C(F)(F)F)cc(C(F)(F)F)c2)cc1"
Response given: -10.1% (inactive)

Challenge: Form field: reported growth inhibition of CC(=O)N(C(=O)CC(=O)N1N=C(C)C(N=Nc2cccc([N+](=O)[O-])c2)C1=O)c1ccc(Cl)cc1 (stereo unspecified)
Response given: -10.3% (inactive)

Challenge: Report growth inhibition for CC(=O)Oc1ccc(CC(C)C(C)Cc2ccc(OC(C)=O)c(OC(C)=O)c2)cc1OC(C)=O (stereo unspecified) please.
Response given: 51% (inactive)

Challenge: Dear colleague, I am looking for the recorded growth inhibition of the following compound: Cc1ccc(S(=O)(=O)N2CCCC(O)c3ccccc32)cc1 (stereo unspecified)
Response given: -18.2% (inactive)

Challenge: Look up growth inhibition for this compound: "Cc1ccc2ccccc2[n+]1CC(=O)c1ccc2c(c1)OCO2"
Response given: -3% (inactive)

Challenge: Please look up its growth inhibition: "O=C1CCCC(=S)N1"
Response given: 3.1% (inactive)

Challenge: Reported growth inhibition for "Cc1cc(Cl)cc(Cl)c1OCC(=O)O" : what is it?
Response given: 6.3% (inactive)

====

Assay: NCI Yeast Anticancer Drug Screen. Data for the bub3 strain (AID 167)
Settings: S. cerevisiae bub3 mutant strain, at 50.0 µM, active compounds read high
Procedure: Growth inhibition of yeast strains with defined genetic alterations is measured as a screen for potential anti-cancer activity. Selected strains with alterations in DNA damage repair or cell cycle control were exposed to compounds and growth inhibition was measured relative to vehicle treated controls. The strain used in this assay is bub3
The panel holds about 79,000 compounds, 15% with a hit somewhere; the sample as a whole holds those more often.
What growth inhibition was measured for each of the following?
Answer format: numeric, % implied, no suffix.

Challenge: Please report the recorded growth inhibition for "COC(=O)c1sc(=O)n(-c2ccccc2)c1SCc1ccccc1" .
Response given: 30.8

Challenge: Find the recorded growth inhibition belonging to "Cn1nnc(CCCl)n1" and report it.
Response given: 16.8

Challenge: Give the measured growth inhibition of COc1ccc(C2OC2C(=O)c2ccccc2)cc1 (configuration not stated) .
Response given: 12.3

Challenge: Quick check: growth inhibition of CC1=NOC2(C1)/C(=N/O)CCC/C2=N\O (configuration not stated) ?
Response given: -11.6

Challenge: Name the recorded growth inhibition for "O=[N+]([O-])c1ccc(N=NN2CCOCC2)cc1" .
Response given: -10.7

Challenge: Query: growth inhibition; subject: "C[C@@]1(NC(=O)Cc2ccccc2)C(=O)N2CCS[C@@]21c1ccccc1"
Response given: 12.8

Challenge: Can you look up the measured growth inhibition of "Cc1ccccc1-c1c2ccccc2cc2c1ccc1ccccc12" for me?
Response given: 9.35

Challenge: Report growth inhibition for "CC(=O)OCCc1nnnn1C" please.
Response given: 2.45

Challenge: Recorded growth inhibition for "O=C(O)Cc1cc2cccc([N+](=O)[O-])c2[nH]1" , please?
Response given: -16.1

Challenge: For the molecule "C[n+]1ccccc1CCC(=O)Nc1ccccc1" , what growth inhibition is on record?
Response given: 0.7

Challenge: Record request: growth inhibition value, item "[O-]c1c[n+](CCCC[n+]2cc([O-])on2)no1"
Response given: -60.7

Challenge: Name the reported growth inhibition value associated with the molecule C/C=C(\CC)C(C#N)(CC)C(=O)OCC (configuration not stated)
Response given: -30.3

Challenge: Can you share its growth inhibition? I mean this molecule: CC(N)(CCBr)C(=O)O (configuration not stated)
Response given: -5.95

Challenge: Dear colleague, I am looking for the recorded growth inhibition of the following molecule: Cc1cccc(NC(=O)CC(=O)N2N=C(N3c4ccccc4Sc4ccccc43)CC2c2ccccc2)c1 (configuration not stated)
Response given: -5.35

Challenge: Look up growth inhibition for this molecule: "Cc1cc2c(=O)cc(-c3ccc(C(=O)O)cc3)oc2c(C(=O)O)c1C"
Response given: 5.7

Challenge: Recorded growth inhibition of CC(C)C(O)C(C)(C)CO (configuration not stated) , please.
Response given: 11.1

Challenge: Quick one: growth inhibition for C=C1C(=O)O[C@H]2/C=C(/C)C3=CC(=O)[C@@](C)(C[C@@H](OC(=O)/C(C)=C\C)C12)O3 (some centres not stated) ?
Response given: 77.9

Challenge: Look up growth inhibition: "O=S(=O)(O)CCCCBr"
Response given: -3

Challenge: I have this molecule here, "Cc1csc2nc(-c3ccccc3)[nH]c(=S)c12" , and I need its recorded growth inhibition.
Response given: -4.8

Challenge: Sample CC1SC2=NC3=C(c4ccccc4C3=O)C(c3ccccc3Cl)N2C1=O (configuration not stated) — what was its growth inhibition?
Response given: 17.9

Challenge: So what does the record say about growth inhibition for COc1ccc(NC(C)=O)cc1C1CCC(=O)N1 (configuration not stated) ?
Response given: -19

Challenge: Please report the recorded growth inhibition for "COc1ccc(/C=N/SC(c2ccccc2)(c2ccccc2)c2ccccc2)cc1" .
Response given: 0.2

====

Test: NCI Yeast Anticancer Drug Screen. Data for the rad50 strain (AID 155);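 also: 0% = growth of vehicle-only cultures of the same strain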
Details: S. cerevisiae rad50 strain growth inhibition; at 50.0 µM
Procedure: Growth inhibition of yeast strains with defined genetic alterations is measured as a screen for potential anti-cancer activity. Selected strains with alterations in DNA damage repair or cell cycle control were exposed to compounds and growth inhibition was measured relative to vehicle treated controls. The strain used in this assay is rad50
Compounds without any hit were thinned out: in the full panel of roughly 79,000, 15% have a hit. Activity calls are given as the source filed them. No stated cut-off is given here; in the data, active means growth inhibition above about 70%; inactive means the rest.
Valid outcomes are listed here; reply with one: 1.0 for active, 0.0 for inactive

Challenge: Check the results log: what was the call for CC1C(O)CCC2C1(C)CCC1C2(C)CCC2(C)C3CC(C)(C)CCC3(C)CCC12C (stereo not given) ?
Response given: 0.0

Challenge: Assay result, entry "CC(C)(Oc1ccccc1)C(=O)Sc1c(-c2ccccc2)c(=O)n(-c2ccccc2)c(=S)n1-c1ccccc1" — outcome?
Response given: 0.0

Challenge: Could you check what this test reported for "CCc1ccc2c(c1)/C(=N\NC(N)=O)CCC2" ?
Response given: 0.0

Challenge: Returns: the outcome recorded for "C=C1C(=O)O[C@@H]2[C@H]3O[C@]3(C)CCC=C(C)CC[C@@H]12" in this assay.
Response given: 0.0

Challenge: Please share the test call associated with CCCCS(=O)(=O)CCC(N)P(=O)(O)O (stereo not given) .
Response given: 0.0

Challenge: Please state the recorded outcome for this molecule: "CC(C)(C)CC(C)(C)c1ccc(OCCOc2ccccc2NS(=O)(=O)c2ccc(N)cc2)cc1"
Response given: 0.0

Challenge: State the result this test recorded for "Nc1c(Br)cc2c(c1Br)C(=O)c1ccccc1-2" .
Response given: 0.0

Challenge: Assay result, entry "CCCCOC(=O)c1ccc(OC(=O)Nc2cccc(Cl)c2)cc1" — outcome?
Response given: 0.0

Challenge: What did this assay record as the result for "CC(=O)OCCS(=O)(=O)c1c(Cl)c(Cl)c(Cl)c(Cl)c1Cl" ?
Response given: 1.0

Challenge: Per the assay record, what outcome was assigned to "COc1ccc(C(=O)c2cc(OC)c(OC)c(OC)c2)cc1OC" ?
Response given: 0.0

Challenge: Tell me the assay call for OCc1ccc2[n+](c1)CCC1c3ccccc3NC21 (stereo not given) please.
Response given: 0.0

Challenge: What outcome does the record of this test show for "COc1cccc([N+](=O)[O-])c1" ?
Response given: 0.0

Challenge: Hello, I am checking results. What call was entered for "C=CCCCCCCCCC(=O)NCCN1CCOCC1" ?
Response given: 1.0

Challenge: Assay result, entry "O=C1OCc2c1cc1cc3c(cc1c2-c1ccc2c(c1)OCO2)OCO3" — outcome?
Response given: 0.0

Challenge: # lookup: test call for Cc1ccc(S(=O)(=O)N2CCC[C@@H]2C(=O)O[C@@H]2CCC3CC=CC32)cc1 (stereo not given in full)
Response given: 0.0

Challenge: Hi, do you know how Cc1cc2c(cc1C)NC1=C(N2)OC(c2ccc(C3OC4=C(Nc5cc(C)c(C)cc5N4)C3=O)cc2)C1=O (stereo not given) came out in this test?
Response given: 0.0

Challenge: How was CC1Cc2ccccc2C2=C3CC=CCC3C3C(=O)OC(=O)C3C21 (stereo not given) classified in this test?
Response given: 0.0

Challenge: Given CCOC(=O)C(OCC1CC=CCC1)Sc1ccccc1 (stereo not given) , state the outcome it received in this test.
Response given: 0.0

Challenge: Field: outcome | Entry: "CCOc1ccc2cc3c(nc2n1)[nH]c1ccccc13"
Response given: 0.0

Challenge: Please indicate how the test categorized "CC1(C)N=C(Oc2ccccc2)n2nccc2N1" .
Response given: 0.0
